From: patent US9266904B2

test: Lyophilisation solubility assay (Lysa); format: physicochemical; conditions: aqueous buffer, thermodynamic from solid; 0.05 M phosphate buffer (pH 6.5); reported as bigger than the value if more than 80% of the sample is in solution; read-out: Lysa
This listing pairs compounds with measured solubility thermodynamic.

Q) Which solubility thermodynamic value belongs to COC(=O)C1=C(CN2CC3(CNC(C)=O)CC2CO3)NC(c2nccs2)=N[C@H]1c1ccc(F)cc1Cl (stereo partly drawn) ?
A) 585 µg/mL

Q) Which solubility thermodynamic value belongs to COC(=O)C1=C(CN2CC3(CO)CC2CO3)NC(c2nccs2)=N[C@H]1c1ccc(F)cc1Cl (stereo partly drawn) ?
A) > 610 µg/mL

Attention now turns to another entry.
Q) Which solubility thermodynamic value belongs to COC(=O)C1=C(CN2CC3(F)CC2(C(=O)O)C3)NC(c2nccs2)=N[C@H]1c1ccc(F)cc1Cl ?
A) > 634 µg/mL

====

This listing pairs molecules with measured CLh.
assay: Human microsomal clearance assay; assay type: in vitro ADME; details: human, 1 μM, pH 7.4
Form entry: value (L/h/kg) — number only.

Q) Which CLh value belongs to COC(=O)C1=C(CN2[C@@H]3COC[C@H]2C[C@H](CC(=O)O)C3)NC(c2nccs2)=N[C@H]1c1ccccc1Br [Example 76] ?
A) 0.198

Q) Which CLh value belongs to COC(=O)C1=C(CN2[C@@H]3CC[C@H]2C[C@@H](O)C3)NC(c2nccs2)=N[C@H]1c1ccc(F)cc1Cl [Example 44] ?
A) 0.426

Q) Which CLh value belongs to COC(=O)C1=C(CN2C3COCC2CC(CC(=O)O)C3)NC(c2nccs2)=N[C@H]1c1ccc(F)c(F)c1Cl (stereo partly shown) [Example 135] ?
A) 0.252

Attention now turns to another entry.
Q) Which CLh value belongs to COC(=O)C1=C(CN2[C@H]3C[C@@H](CC(=O)O)C[C@@H]2C(F)(F)C3)NC(c2nccs2)=N[C@H]1c1ccc(F)cc1Cl [Example 87] ?
A) 0
